Numbers sourced from PubChem BioAssay (NCI).

Would you mind telling me the reported TGI of each entry?
- System: HCT-15 colon
- ASSAY_METHOD_TEXT: NCI tumour cell line growth inhibition, 48 h

Worked set:
[
  {
    "MOLECULE": "COc1cc(Oc2nc3ccc(C(F)(F)F)cc3nc2-c2ccccc2)cc(OC)c1OC",
    "READOUT_VALUE": "> 100 µM"
  },
  {
    "MOLECULE": "O=C(NCCNCCO)c1cccc2ccc(-c3ccccc3)nc12",
    "READOUT_VALUE": "14.8 µM"
  },
  {
    "MOLECULE": "O=[N+]([O-])c1ccc(C(O)(C#CCN2CCCC2)c2ccccc2)cc1 (stereo unspecified)",
    "READOUT_VALUE": "> 100 µM"
  },
  {
    "MOLECULE": "COc1cccc(Oc2ccccc2NC(=O)CNC(=O)c2cccc3ccccc23)c1",
    "READOUT_VALUE": "> 25 µM"
  }
]

Would you mind listing TGI for each of the following molecules?
1. c1cc(-c2cn3c(n2)SCC3)ccn1
2. Cc1cc2c(c(C(N)=O)c1C)-c1cc(Cl)cc(Cl)c1C2=O

[out]
1: > 59 µM; 2: > 100 µM

###

Would you mind telling me the reported TGI of each entry?
- Test system: BT-549 breast
- ASSAY_METHOD_TEXT: NCI tumour cell line growth inhibition, 48 h
One number for each entry, in µM.

Worked set:
[
  {
    "MOLECULE": "Oc1cc(-n2cccn2)c(O)cc1-n1cccn1",
    "TARGET_ENTITY": "BT-549 breast",
    "METRIC_NAME": "TGI",
    "READOUT_VALUE": 35.7
  },
  {
    "MOLECULE": "C[C@@H]1O[C@@H](O[C@@H]2[C@@H](O)[C@H](OCCc3ccc(O)c(O)c3)O[C@H](CO)[C@H]2OC(=O)/C=C/c2ccc(O)c(O)c2)[C@H](O)[C@H](OC2OC[C@](O)(CO)[C@H]2O)[C@H]1O (stereo partly specified)",
    "TARGET_ENTITY": "BT-549 breast",
    "METRIC_NAME": "TGI",
    "READOUT_VALUE": 27.2
  },
  {
    "MOLECULE": "CN(C)CCc1c2c(nc3ccccc13)C(=O)c1cccnc1C2=O",
    "TARGET_ENTITY": "BT-549 breast",
    "METRIC_NAME": "TGI",
    "READOUT_VALUE": 1.71
  }
]

Would you mind listing TGI for each of the following molecules?
1. O=C(c1ccco1)N(C(=O)N1CCN(c2ccccc2)CC1)S(=O)(=O)c1ccccc1
2. C[C@@H]1Cc2cc(O)ccc2[C@H]2CC[C@]3(C)/C(=C/COCCN(C)C)CC[C@H]3[C@H]12 (tested in a mixture with another compound)

[out]
[87.6, 0.8]

###

- Tested on: SNB-78 CNS
- ASSAY_METHOD_TEXT: NCI tumour cell line growth inhibition, 48 h
METRIC_NAME: TGI

Worked set:
[
  {
    "COMPOUND": "Oc1cc(-n2cccn2)c(O)cc1-n1cccn1",
    "TGI": "> 68.7 µM"
  },
  {
    "COMPOUND": "O=C(Cc1nc2ccccc2o1)C(=O)Nc1cccc(C(F)(F)F)c1",
    "TGI": "> 100 µM"
  },
  {
    "COMPOUND": "N#CCN1C(=O)c2cc([N+](=O)[O-])cc3cc([N+](=O)[O-])cc(c23)C1=O",
    "TGI": "> 58 µM"
  },
  {
    "COMPOUND": "Cc1ccc(NC(=O)C(=O)C(C(=O)/C=C/c2ccccc2)C2OC(=O)c3ccccc32)c(C)c1 (stereo not given)",
    "TGI": "> 100 µM"
  }
]

// moving on: another record for TGI
Per the record, O=NN(CCF)C(=O)NC1CCSCC1 has TGI of > 100 µM
